Cited source: patent US20090111798A1

molecular target: NS5B polymerase (Hepatitis C virus genotype 1b)
Sequence (P26663 2420-3010): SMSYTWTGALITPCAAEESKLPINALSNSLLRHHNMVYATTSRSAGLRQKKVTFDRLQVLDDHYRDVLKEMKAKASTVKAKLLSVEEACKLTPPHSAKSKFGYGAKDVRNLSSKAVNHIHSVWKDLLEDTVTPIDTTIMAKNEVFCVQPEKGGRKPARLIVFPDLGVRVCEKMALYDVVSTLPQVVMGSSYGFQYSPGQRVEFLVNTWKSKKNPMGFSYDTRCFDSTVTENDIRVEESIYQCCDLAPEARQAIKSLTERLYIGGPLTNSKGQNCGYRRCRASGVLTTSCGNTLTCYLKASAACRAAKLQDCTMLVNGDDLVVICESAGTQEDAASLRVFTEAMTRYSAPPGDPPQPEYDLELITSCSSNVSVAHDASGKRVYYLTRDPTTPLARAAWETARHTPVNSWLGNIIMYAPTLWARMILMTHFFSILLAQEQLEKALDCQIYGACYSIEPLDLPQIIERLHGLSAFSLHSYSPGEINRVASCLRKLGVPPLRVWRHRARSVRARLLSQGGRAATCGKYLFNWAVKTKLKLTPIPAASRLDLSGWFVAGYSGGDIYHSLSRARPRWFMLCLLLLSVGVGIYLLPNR
As shown below, each of these compounds has a reported IC50 value.

compound	IC50
O=C1C(C2=NS(=O)(=O)c3cc(N4CCCCC4)ccc3N2)=C(O)[C@@H]2CCC[C@@H]2N1Cc1ccc(F)cc1 [Example 42]	1000 to 100000 nM
Cc1cc(CN2C(=O)C(C3=NS(=O)(=O)c4cc(NS(C)(=O)=O)ccc4N3)=C(O)[C@@H]3CCC[C@@H]32)ccc1F [Example 22]	< 20 nM
CC(C)CCN1C(=O)C(C2=NS(=O)(=O)c3cc(N(C)S(C)(=O)=O)ccc3N2)=C(O)C2CCCCCC21 (stereo not drawn) [Example 34]	100 to 1000 nM
CS(=O)(=O)Nc1ccc2c(c1)S(=O)(=O)N=C(C1=C(O)[C@@H]3CCC[C@@H]3N(CCC3CC3)C1=O)N2 (relative stereo) [Example 19]	20 to 100 nM
CC(C)(C)CCN1C(=O)C(C2=NS(=O)(=O)c3cc(NS(C)(=O)=O)ccc3N2)=C(O)C2CCCCCCC21 (stereo not drawn) [Example 35]	1000 to 100000 nM
CS(=O)(=O)Nc1ccc2c(c1)S(=O)(=O)N=C(C1=C(O)[C@@H]3CCC[C@@H]3N(Cc3ccc(C(F)(F)F)cc3)C1=O)N2 [Example 14]	100 to 1000 nM

====

molecular target: UniProtKB P26663
pIC50: −log10 of the molar value.

compound	pIC50
O=C1C(C2=NS(=O)(=O)c3ccccc3N2)=C(O)C2CCCC2N1Cc1ccc(F)cc1 (mixture of isomers)	6.00 to 7.00
O=C1C(C2=NS(=O)(=O)c3cc(I)ccc3N2)=C(O)[C@@H]2CCC[C@@H]2N1Cc1ccc(F)cc1	4.00 to 6.00
CC(C)CCN1C(=O)C(C2=NS(=O)(=O)c3cc(NS(C)(=O)=O)ccc3N2)=C(O)C2CCCCC21 (stereo not drawn)	7.00 to 7.70
CC(C)(C)CCN1C(=O)C(C2=NS(=O)(=O)c3cc(NS(C)(=O)=O)ccc3N2)=C(O)C2CCCCCC21 (stereo not drawn)	7.00 to 7.70
CS(=O)(=O)Nc1ccc2c(c1)S(=O)(=O)N=C(C1=C(O)[C@@H]3CCC[C@@H]3N(C3CCCC3)C1=O)N2 (relative stereo)	4.00 to 6.00
CS(=O)(=O)Nc1ccc2c(c1)S(=O)(=O)N=C(C1=C(O)[C@@H]3CCC[C@@H]3N(Cc3ccc(F)cc3)C1=O)N2 (relative stereo) [Example 1]	> 7.70
